Attribution: ChEMBL document CHEMBL1139173

# Tested System: Thymidine kinase 2, mitochondrial (Homo sapiens)
# Measurement Notes: Inhibition of human fibroblast mitochondrial TK2 using dCyd substrate
pIC50: −log10 of the molar value.
Property: pIC50

Compound Structure	Quantitative Result
CCCCCCCCCC(=O)O[C@H]1[C@H](O)[C@@H](CO)O[C@H]1n1cc(/C=C/Br)c(=O)[nH]c1=O	4.01

###

In what follows, each item is paired with its IC50 for UniProtKB Q9QNF7.

Compound Structure	IC50
CC(C)(C)OC(=O)NCCCCCCCC(=O)O[C@H]1[C@H](O)[C@@H](CO)O[C@H]1n1cc(/C=C/Br)c(=O)[nH]c1=O	447 µM
O=C(Cc1ccccc1)O[C@H]1[C@H](O)[C@@H](CO)O[C@H]1n1cc(/C=C/Br)c(=O)[nH]c1=O	247 µM
CC(C)(C)OC(=O)NCCCC(=O)O[C@H]1[C@H](O)[C@@H](CO)O[C@H]1n1cc(/C=C/Br)c(=O)[nH]c1=O	485 µM
CCCCCCCC(=O)Nc1nc2c(ncn2[C@@H]2O[C@H](CO)[C@@H](O)[C@@H]2OC(=O)CCCCCCC)c(=O)[nH]1	> 500 µM
Cc1cn([C@@H]2O[C@H](CO)[C@@H](O)[C@@H]2OCc2ccccc2)c(=O)[nH]c1=O	> 1000 µM
CCCCCCCC(=O)O[C@H]1[C@H](O)[C@@H](CO)O[C@H]1n1cc(C)c(=O)[nH]c1=O	> 1000 µM
CCCCC(=O)O[C@H]1[C@H](O)[C@@H](CO)O[C@H]1n1cnc2c(=O)[nH]c(N)nc21	> 500 µM
CCCCCCCCO[C@H]1[C@H](O)[C@@H](CO)O[C@H]1n1cc(C)c(=O)n(CCCCCCCC)c1=O	> 1000 µM

###

Listed compounds paired with reported log10(IC50)
# Tested System: Thymidine kinase 2, mitochondrial (Homo sapiens)
# Measurement Notes: Inhibition of human TK2 assessed as [methyl-3H]dThd phosphorylation
Property: log10(IC50) (log10 of the value in µM)

Compound Structure	log10(IC50)
CCCCCCCC(=O)O[C@H]1[C@H](O)[C@@H](CO)O[C@H]1n1cc(C)c(=O)[nH]c1=O	2.08
NCCCC(=O)O[C@H]1[C@H](O)[C@@H](CO)O[C@H]1n1cc(/C=C/Br)c(=O)[nH]c1=O	2.27
CC(C)(C)OC(=O)NCCCC(=O)O[C@H]1[C@H](O)[C@@H](CO)O[C@H]1n1cc(/C=C/Br)c(=O)[nH]c1=O	1.74
O=C(Cc1ccccc1)O[C@H]1[C@H](O)[C@@H](CO)O[C@H]1n1cc(/C=C/Br)c(=O)[nH]c1=O	1.87
Cc1cn([C@@H]2O[C@H](CO)[C@@H](O)[C@@H]2OCc2ccccc2)c(=O)[nH]c1=O	2.90

###

Target chain: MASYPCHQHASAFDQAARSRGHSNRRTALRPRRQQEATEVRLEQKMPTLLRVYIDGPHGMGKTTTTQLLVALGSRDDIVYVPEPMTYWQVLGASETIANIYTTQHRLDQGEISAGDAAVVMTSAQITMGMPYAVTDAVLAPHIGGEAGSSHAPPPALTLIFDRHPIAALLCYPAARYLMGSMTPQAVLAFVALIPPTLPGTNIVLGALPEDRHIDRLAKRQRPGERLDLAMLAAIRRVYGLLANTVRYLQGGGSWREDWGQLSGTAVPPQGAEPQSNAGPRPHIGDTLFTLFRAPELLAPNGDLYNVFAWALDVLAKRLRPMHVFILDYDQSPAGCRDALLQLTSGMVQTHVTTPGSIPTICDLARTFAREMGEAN
pIC50: −log10 of the molar value.
Listed molecules paired with reported pIC50
Property: pIC50

Compound Structure	Property	Result
CCCCCCCCCC(=O)O[C@H]1[C@H](O)[C@@H](CO)O[C@H]1n1cc(C)c(=O)[nH]c1=O	pIC50	≤ 3.00
COCC(=O)O[C@H]1[C@H](O)[C@@H](CO)O[C@H]1n1cc(/C=C/Br)c(=O)[nH]c1=O	pIC50	4.08
CCCCCCCCCC(=O)O[C@H]1[C@H](O)[C@@H](CO)O[C@H]1n1cc(/C=C/Br)c(=O)[nH]c1=O	pIC50	< 3.00
CC(C)(C)OC(=O)NCCCCCCCCCCCC(=O)O[C@H]1[C@H](O)[C@@H](CO)O[C@H]1n1cc(/C=C/Br)c(=O)[nH]c1=O	pIC50	< 3.30

###

Listed compounds paired with reported IC50
# Tested System: Thymidine kinase 2, mitochondrial (Homo sapiens)
# Measurement Notes: Inhibition of human TK2 assessed as [methyl-3H]dThd phosphorylation

Compound Structure	IC50
CCCCC(=O)O[C@H]1[C@H](O)[C@@H](CO)O[C@H]1n1cnc2c(=O)[nH]c(N)nc21	> 500 µM
NCCCCCC(=O)O[C@H]1[C@H](O)[C@@H](CO)O[C@H]1n1cc(/C=C/Br)c(=O)[nH]c1=O	> 500 µM
CCCCCCCCO[C@H]1[C@H](O)[C@@H](CO)O[C@H]1n1cc(C)c(=O)n(CCCCCCCC)c1=O	> 1000 µM
Nc1nc2c(ncn2[C@@H]2O[C@H](CO)[C@@H](O)[C@@H]2O)c(=O)[nH]1	> 500 µM

###

# Tested System: Thymidine kinase 2, mitochondrial (Homo sapiens, UniProt O00142)
# Sequence (O00142 whole entry): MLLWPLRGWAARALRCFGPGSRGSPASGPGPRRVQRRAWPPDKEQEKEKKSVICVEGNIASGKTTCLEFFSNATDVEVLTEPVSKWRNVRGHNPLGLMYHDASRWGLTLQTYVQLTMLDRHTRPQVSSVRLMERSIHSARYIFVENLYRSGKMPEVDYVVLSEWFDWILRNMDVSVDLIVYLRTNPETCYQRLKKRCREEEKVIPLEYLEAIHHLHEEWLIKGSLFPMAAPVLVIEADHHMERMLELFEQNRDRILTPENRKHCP
# Measurement Notes: Inhibition of human TK2 assessed as [methyl-3H]dThd phosphorylation

Compound Structure	IC50
CCCCCCCCn1c(=O)c(C)cn([C@@H]2O[C@H](CO)[C@@H](O)[C@@H]2O)c1=O	> 500 µM
CCCCCCCC(=O)O[C@H]1[C@H](O)[C@@H](CO)O[C@H]1n1cnc2c(=O)[nH]c(N)nc21	> 500 µM
CCCCCCCC(=O)Nc1nc2c(ncn2[C@@H]2O[C@H](CO)[C@@H](O)[C@@H]2OC(=O)CCCCCCC)c(=O)[nH]1	> 500 µM
